B1: library; a variant is named by its letters at N, in order (parent)
chain: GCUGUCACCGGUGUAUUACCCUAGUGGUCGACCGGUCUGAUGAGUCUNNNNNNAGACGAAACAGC

Variants of: B1
TEST: FACS-Seq fitted mean relative fluorescence mCherry/BFP with ligand (log10 relative fluorescence); ligand: hypoxanthine (xanthine aptamer); ligand concentration (+) FACS-Seq: 5 mM; higher = higher reporter protein expression
ASSAY_CONDITIONS: HEK293T, ligand present: yes
Assignment: determine reported FACS-Seq fitted mean (log10) for the given variants.

Below, each entry is followed by its recorded FACS-Seq fitted mean (log10) result.
In [3]: df
Out[3]:
                             chain_sequence  result
0  GCUGUCACCGGUGUAUUACCCUAGUGGUCGACCGGUCUGAUGAGUCUCAACAUAGACGAAACAGC [CAACAU]   0.672
1  GCUGUCACCGGUGUAUUACCCUAGUGGUCGACCGGUCUGAUGAGUCUGCGAUCAGACGAAACAGC [GCGAUC]   0.601
2  GCUGUCACCGGUGUAUUACCCUAGUGGUCGACCGGUCUGAUGAGUCUCCAAGUAGACGAAACAGC [CCAAGU]   0.544
3  GCUGUCACCGGUGUAUUACCCUAGUGGUCGACCGGUCUGAUGAGUCUGAGAAUAGACGAAACAGC [GAGAAU]   0.611
4  GCUGUCACCGGUGUAUUACCCUAGUGGUCGACCGGUCUGAUGAGUCUAGCAGCAGACGAAACAGC [AGCAGC]    0.54

For every item in the list below, what is its measured FACS-Seq fitted mean (log10)?
1. GCUGUCACCGGUGUAUUACCCUAGUGGUCGACCGGUCUGAUGAGUCUGCGAGAAGACGAAACAGC [GCGAGA]
2. GCUGUCACCGGUGUAUUACCCUAGUGGUCGACCGGUCUGAUGAGUCUUUUAACAGACGAAACAGC [UUUAAC]
3. GCUGUCACCGGUGUAUUACCCUAGUGGUCGACCGGUCUGAUGAGUCUCCCACAAGACGAAACAGC [CCCACA]
4. GCUGUCACCGGUGUAUUACCCUAGUGGUCGACCGGUCUGAUGAGUCUAUACUAAGACGAAACAGC [AUACUA]
5. GCUGUCACCGGUGUAUUACCCUAGUGGUCGACCGGUCUGAUGAGUCUCUGACCAGACGAAACAGC [CUGACC]

Result:
1: 0.312; 2: 0.716; 3: 0.739; 4: 0.512; 5: 0.416

For every item in the list below, what is its measured FACS-Seq fitted mean (log10)?
1. GCUGUCACCGGUGUAUUACCCUAGUGGUCGACCGGUCUGAUGAGUCUAUCUGAAGACGAAACAGC [AUCUGA]
2. GCUGUCACCGGUGUAUUACCCUAGUGGUCGACCGGUCUGAUGAGUCUAAGCGAAGACGAAACAGC [AAGCGA]
3. GCUGUCACCGGUGUAUUACCCUAGUGGUCGACCGGUCUGAUGAGUCUUGAAGUAGACGAAACAGC [UGAAGU]
4. GCUGUCACCGGUGUAUUACCCUAGUGGUCGACCGGUCUGAUGAGUCUGUGAGAAGACGAAACAGC [GUGAGA]
5. GCUGUCACCGGUGUAUUACCCUAGUGGUCGACCGGUCUGAUGAGUCUGGGCAAAGACGAAACAGC [GGGCAA]

Result:
1. 0.684
2. 0.391
3. 0.496
4. -0.146
5. 0.266

The measured values listed here are drawn from the supplement of paper PMC6757056.
